# Tested on: MDA-MB-231 breast cancer cell line
# experiment_description: MTT cytotoxicity assay on breast cancer cell line MDA-MB-231
# Format: cell-based, human
# particulars: Homo sapiens, MDA-MB-231; MTT, 48 h; read-out: IC50 values, breast cancer cell line MDA-MB-231
readout: pIC50
Quick note: pIC50 means taking -log10 of the concentration in moles per liter.

Worked examples, 3 molecules total:
| structure_notation | pIC50 |
| --- | --- |
| O=C(Cc1ccccc1)N/N=C1/C(=O)N(Cc2ccccc2)c2ccccc21 | 4.61 |
| O=C(Cc1ccccc1Nc1c(Cl)cccc1Cl)N/N=C1/C(=O)N(Cc2ccccc2)c2ccccc21 | 4.53 |
| O=C(Cc1ccc(C(F)(F)F)cc1)N/N=C1/C(=O)N(Cc2ccccc2)c2ccccc21 | 4.51 |

"O=C(Cc1ccccc1C(F)(F)F)N/N=C1/C(=O)N(Cc2ccccc2)c2ccccc21" has a reported pIC50 of 4.60

====

# Test system: MDA-MB-231 breast cancer cell line
# experiment_description: MTT cytotoxicity assay on breast cancer cell line MDA-MB-231
# Assay type: cell-based, human
# particulars: MTT, 48 h; concentration for the value not given (6.5-50 μM tested)
readout: % viability, breast cancer cell line MDA-MB-231 (%)
Quick note: give the figure in %, leave out the unit.

| structure_notation | value_observed |
| --- | --- |
| O=C(Cc1ccccc1)N/N=C1/C(=O)N(Cc2ccccc2)c2ccccc21 | 29.54 |
| Cc1ccccc1C(=O)N/N=C1/C(=O)N(Cc2ccccc2)c2ccccc21 | 23.77 |

Lab note: next compound to report on.
The reported % viability, breast cancer cell line MDA-MB-231 value, MDA-MB-231 breast cancer cell line, for "O=C(N/N=C1/C(=O)N(Cc2ccccc2)c2ccccc21)c1cccc(Cl)c1" reads 27.11

====

# experiment_description: MTT cytotoxicity assay on normal breast epithelial cell line MCF-10A (control)
# Type: cell-based, human
# particulars: human, MCF-10A normal breast epithelial cells; MTT, 48 h; concentration for the value not given (6.5-50 μM tested)
# Procedure: Breast cancer cells MDA-MB-231 were used to investigate the synthesized compounds' anticancer properties. […] In vitro, cytotoxicity assay for the synthetic derivatives was determined by performing an MTT (yellow tetrazolium salt, 3-(4,5-dimethylthizol-2-yl)-2,5-diphenyl tetrazolium bromide) assay by using an aggressive breast cancer cell line MDA-MB-231.[51] […] The absorbance of the mixtures was calculated using a microplate reader at 570 nm. […]
readout: viability at 48 h
Could you kindly put the unit after your number?

Worked examples, 3 compounds total:
| compound | value_observed |
| --- | --- |
| O=C(Cc1ccc(C(F)(F)F)cc1)N/N=C1/C(=O)N(Cc2ccccc2)c2ccccc21 [Compound 12] | 80.4% |
| O=C(Cc1ccccc1C(F)(F)F)N/N=C1/C(=O)N(Cc2ccccc2)c2ccccc21 [Compound 10] | 84.9% |
| O=C(Cc1ccccc1Nc1c(Cl)cccc1Cl)N/N=C1/C(=O)N(Cc2ccccc2)c2ccccc21 [Compound 19] | 80.3% |

Read the next record carefully.
# viability at 48 h of O=C(Cc1ccccc1)N/N=C1/C(=O)N(Cc2ccccc2)c2ccccc21 [Compound 24] = 78.5%

====

# System: MDA-MB-231 breast cancer cell line
# experiment_description: MTT cytotoxicity assay on breast cancer cell line MDA-MB-231
# Format: cell-based, human
# particulars: MTT, 48 h; concentration for the value not given (6.5-50 μM tested)
readout: % viability, breast cancer cell line MDA-MB-231 (%)
Numeric only. Scale: %

Examples from the recorded data:
| structure_notation | measured_target | unit_descriptor | value_observed |
| --- | --- | --- | --- |
| O=C(Cc1ccc(C(F)(F)F)cc1)N/N=C1/C(=O)N(Cc2ccccc2)c2ccccc21 | MDA-MB-231 breast cancer cell line | % | 36.52 |
| O=C(N/N=C1/C(=O)N(Cc2ccccc2)c2ccccc21)c1ccccc1Cl | MDA-MB-231 breast cancer cell line | % | 34.56 |

Given item "O=C(N/N=C1/C(=O)N(Cc2ccccc2)c2ccccc21)c1ccccc1Br" , the value recorded as its % viability, breast cancer cell line MDA-MB-231 is 21.28

% viability, breast cancer cell line MDA-MB-231 for "O=C(Cc1ccc(F)cc1F)N/N=C1/C(=O)N(Cc2ccccc2)c2ccccc21" is 22.46

For "O=C(N/N=C1/C(=O)N(Cc2ccccc2)c2ccccc21)c1ccc(Br)cc1" the compound record lists % viability, breast cancer cell line MDA-MB-231 as 42.11

Data point: "O=C(N/N=C1/C(=O)N(Cc2ccccc2)c2ccccc21)c1ccncc1" ; % viability, breast cancer cell line MDA-MB-231 = 19.13

// recorded % viability, breast cancer cell line MDA-MB-231 for "O=C(Cc1ccccc1C(F)(F)F)N/N=C1/C(=O)N(Cc2ccccc2)c2ccccc21" : 29.12

Input "O=C(N/N=C1\C(=O)N(Cc2ccccc2)c2ccccc21)c1cccnc1" . Output % viability, breast cancer cell line MDA-MB-231: 41.19

Record summary for "O=C(N/N=C1/C(=O)N(Cc2ccccc2)c2ccccc21)c1cc2ccccc2cc1O" : reported % viability, breast cancer cell line MDA-MB-231 = 31.67

Noted for "O=C(N/N=C1/C(=O)N(Cc2ccccc2)c2ccccc21)c1ccco1" : its % viability, breast cancer cell line MDA-MB-231 reads 29.40

====

# experiment_description: MTT cytotoxicity assay on normal breast epithelial cell line MCF-10A (control)
# Assay type: cell-based, human
# particulars: human; MTT, 48 h; concentration for the value not given (6.5-50 μM tested)
Flag rule - viability at 48 h less than 80% flags Met; the remaining entries get Not met.

| structure_notation | classification |
| --- | --- |
| O=C(N/N=C1/C(=O)N(Cc2ccccc2)c2ccccc21)c1cc2ccccc2cc1O | Met |
| O=C(N/N=C1/C(=O)N(Cc2ccccc2)c2ccccc21)c1ccc(C(F)(F)F)cc1 | Met |

Q. Item "Cc1ccc(C(=O)N/N=C2/C(=O)N(Cc3ccccc3)c3ccccc32)cc1F" : viability at 48 h beneath 80%, strictly?
A. Met

Q. Input "O=C(N/N=C1/C(=O)N(Cc2ccccc2)c2ccccc21)c1ccc(Br)cc1" ; condition: viability at 48 h strictly below 80%. Does it hold?
A. Not met

====

# Tested on: MDA-MB-231 breast cancer cell line
# experiment_description: MTT cytotoxicity assay on breast cancer cell line MDA-MB-231
# Assay type: cell-based, human
# particulars: MTT, 48 h; concentration for the value not given (6.5-50 μM tested)
readout: % viability, breast cancer cell line MDA-MB-231 (%)
Answer format: numeric, % implied, no suffix.

The examples below pair each entry with its known result.
| structure_notation | unit_descriptor | value_observed |
| --- | --- | --- |
| Cc1ccc(C(=O)N/N=C2/C(=O)N(Cc3ccccc3)c3ccccc32)cc1F | % | 25.61 |
| COc1ccc(C(=O)N/N=C2/C(=O)N(Cc3ccccc3)c3ccccc32)cc1 | % | 26.13 |
| Cc1ccc(F)c(C(=O)N/N=C2/C(=O)N(Cc3ccccc3)c3ccccc32)c1 | % | 30.01 |
| O=C(N/N=C1/C(=O)N(Cc2ccccc2)c2ccccc21)c1ccc(C(F)(F)F)cc1 | % | 38.09 |
| O=C(N/N=C1/C(=O)N(Cc2ccccc2)c2ccccc21)c1cccc2ccccc12 | % | 29.01 |

% viability, breast cancer cell line MDA-MB-231 recorded for this compound, "O=C(N/N=C1/C(=O)N(Cc2ccccc2)c2ccccc21)c1ccccc1" , is 25.41

Kindly note the recorded % viability, breast cancer cell line MDA-MB-231 for "O=C(Cc1ccccc1Nc1c(Cl)cccc1Cl)N/N=C1/C(=O)N(Cc2ccccc2)c2ccccc21" , which is 37.23

====

This section presents molecules with their documented viability at 48 h values.
# experiment_description: MTT cytotoxicity assay on normal breast epithelial cell line MCF-10A (control)
# Format: cell-based, human
# particulars: human; MTT, 48 h; concentration for the value not given (6.5-50 μM tested)
# Procedure: Breast cancer cells MDA-MB-231 were used to investigate the synthesized compounds' anticancer properties. […] In vitro, cytotoxicity assay for the synthetic derivatives was determined by performing an MTT (yellow tetrazolium salt, 3-(4,5-dimethylthizol-2-yl)-2,5-diphenyl tetrazolium bromide) assay by using an aggressive breast cancer cell line MDA-MB-231.[51] […] The absorbance of the mixtures was calculated using a microplate reader at 570 nm. […]
Value expressed in %; do not type the unit.

| molecule | unit_descriptor | value_observed |
| --- | --- | --- |
| O=C(N/N=C1/C(=O)N(Cc2ccccc2)c2ccccc21)c1ccccc1Br [Compound 22] | % | 78.4 |
| Cc1ccc(F)c(C(=O)N/N=C2/C(=O)N(Cc3ccccc3)c3ccccc32)c1 [Compound 7] | % | 79.3 |
| O=C(N/N=C1/C(=O)N(Cc2ccccc2)c2ccccc21)c1ccco1 [Compound 16] | % | 79.9 |
| O=C(N/N=C1/C(=O)N(Cc2ccccc2)c2ccccc21)c1cccc(Cl)c1 [Compound 5] | % | 80.1 |
| O=C(N/N=C1/C(=O)N(Cc2ccccc2)c2ccccc21)c1ccccc1 [Compound 11] | % | 82 |

Sample O=C(N/N=C1/C(=O)N(Cc2ccccc2)c2ccccc21)c1ccncc1 [Compound 8] ; viability at 48 h observed: 78.1

The reported viability at 48 h of the molecule COc1ccc(C(=O)N/N=C2/C(=O)N(Cc3ccccc3)c3ccccc32)cc1 [Compound 6] was 81.1

Data provenance: paper PMC11726183
